# credit: patent USRE46630E1

Target of assay: Human neutrophil elastase (Homo sapiens, UniProt P08246)
Sequence (P08246 30-267): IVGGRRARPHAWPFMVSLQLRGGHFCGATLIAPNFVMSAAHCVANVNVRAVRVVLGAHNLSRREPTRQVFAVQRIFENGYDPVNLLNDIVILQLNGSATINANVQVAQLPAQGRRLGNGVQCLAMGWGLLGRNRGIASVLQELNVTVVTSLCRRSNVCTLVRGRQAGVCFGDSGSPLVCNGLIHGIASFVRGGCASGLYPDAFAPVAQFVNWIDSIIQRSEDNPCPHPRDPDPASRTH
Experimental protocol: Human Neutrophil Elastase Assay
Measurement conditions: Neutrophil Elastase assay; substrate MeOSuc-Ala-Ala-Pro-Val-AMC 250 μM; 15 min preincubation, 60 min incubation at room temperature; pH 7.5
Protocol: Human Neutrophil Elastase Assay All other materials were of the highest grade commercially available. […] Assay conditions: Test compounds were prediluted in DMSO and subsequently in compound buffer (5% DMSO final). […] After inactivation of the enzyme, fluorescence intensities were measured at 380 nm excitation and 460 nm emission wavelengths. […]
The label condition met is reserved for IC50 strictly under 10 nM; condition not met covers values equal to or above it.

Just wondering, is IC50 of Cc1c(-c2ccnc(C(F)(F)F)c2)c(=O)c(C(=O)NC2CCOC2)cn1C(C)c1ccc(C#N)cc1 (centres unmarked) below 10 nM?
condition not met

Just wondering, is IC50 of COCCCNC(=O)c1cn(Cc2ccc(C#N)cc2)c(C)c(-c2cccc(C(F)(F)F)c2)c1=O below 10 nM?
condition not met

Just wondering, is IC50 of Cc1c(-c2cccc(C(F)F)c2)c(=O)c(C(=O)NCc2ccc(S(C)(=O)=O)cc2)cn1Cc1ccc(C#N)cc1F below 10 nM?
condition met

Just wondering, is IC50 of CNC(=O)c1cn(C(C)c2ccc(C#N)cc2)c(C)c(-c2cccc(CF)c2)c1=O (single isomer, unassigned) [Example 31B] below 10 nM?
condition met

Just wondering, is IC50 of Cc1c(-c2cccc(C(F)(F)F)c2)c(=O)c(C(=O)NCc2ccc(S(C)(=O)=O)cc2)cn1Cc1ccc(C#N)cc1 below 10 nM?
condition met

Just wondering, is IC50 of CNC(=O)c1cn(Cc2ccc(C#N)nc2)c(C)c(-c2cccc(C(F)(F)F)c2)c1=O below 10 nM?
condition not met

Just wondering, is IC50 of CCNC(=O)c1cn(C(CC)c2ccc(C#N)cc2)c(C)c(-c2cccc(C(F)(F)F)c2)c1=O (centres unmarked) below 10 nM?
condition met

Just wondering, is IC50 of Cc1c(-c2cccc(C(F)(F)F)c2)c(=O)c(C(=O)NCc2cnn(C)c2)cn1Cc1ccc(C#N)cc1 below 10 nM?
condition not met

Just wondering, is IC50 of Cc1c(-c2ccnc(C(F)(F)F)c2)c(=O)c(C(=O)NCc2ccc(S(C)(=O)=O)cc2)cn1Cc1ccc(C#N)c(F)c1 below 10 nM?
condition met

Just wondering, is IC50 of CNC(=O)c1cn(Cc2ccc(C#N)c(F)c2)c(C)c(-c2ccnc(C(F)(F)F)c2)c1=O below 10 nM?
condition not met

Just wondering, is IC50 of Cc1c(-c2cccc(C(F)F)c2)c(=O)c(C(=O)NCCn2cccn2)cn1C(C)c1ccc(C#N)cc1 (centres unmarked) below 10 nM?
condition met

Just wondering, is IC50 of Cc1c(-c2ccnc(C(F)(F)F)c2)c(=O)c(C(=O)NCC2CCC2)cn1C(C)c1ccc(C#N)cc1 (centres unmarked) below 10 nM?
condition not met

Just wondering, is IC50 of CS(=O)(=O)c1ccc(CNC(=O)c2cn(Cc3ccc(C#N)cc3)cc(-c3cccc(C(F)(F)F)c3)c2=O)cc1 below 10 nM?
condition met

====

Target of assay: Human neutrophil elastase (Homo sapiens)
Experimental protocol: Human Neutrophil Elastase Assay
Measurement conditions: Neutrophil Elastase assay; substrate MeOSuc-Ala-Ala-Pro-Val-AMC 250 μM; 15 min preincubation, 60 min incubation at room temperature; pH 7.5
Measured property: pIC50
// scale note: pIC50 = -log10(conc_M); give the bare number

Please report the recorded pIC50 for Cc1c(-c2ccnc(C(F)(F)F)c2)c(=O)c(C(=O)NC2(C#N)CC2)cn1C(C)c1ccc(C#N)cc1 (stereo not shown) .
8.28

Please report the recorded pIC50 for Cc1c(-c2cccc(C(F)(F)F)c2)c(=O)c(C(=O)NC2CCOCC2)cn1Cc1ccc(C#N)cc1 .
7.50

Please report the recorded pIC50 for CNC(=O)c1cn(C(C)c2ccc(C#N)cn2)c(C)c(-c2cccc(C(F)F)c2)c1=O (single isomer, unassigned) [Example 16B] .
6.43

Please report the recorded pIC50 for Cc1c(-c2ccnc(C(F)(F)F)c2)c(=O)c(C(=O)NCC(C)O)cn1C(C)c1ccc(C#N)cc1 (stereo not shown) [Example 9.61] .
8.07

Please report the recorded pIC50 for CNC(=O)c1cn(Cc2ccc(C#N)cn2)c(C)c(-c2cccc(C(F)F)c2)c1=O .
7.51

Please report the recorded pIC50 for CNC(=O)c1cn(Cc2ccc(C#N)cc2S(C)(=O)=O)c(C)c(-c2cccc(C(F)(F)F)c2)c1=O .
8.07

Please report the recorded pIC50 for Cc1c(-c2cccc(C(F)(F)F)c2)c(=O)c(C(=O)NC2CCN(C)C2=O)cn1C(C)c1ccc(C#N)cn1 (stereo not shown) .
8.14

Please report the recorded pIC50 for Cc1c(-c2cccc(C(F)(F)F)c2)c(=O)c(C(=O)NCCC[N+](C)(C)C)cn1Cc1ccc(C#N)cc1 .
7.31

Please report the recorded pIC50 for Cc1c(-c2cccc(C(F)(F)F)c2)c(=O)c(C(=O)N[C@@H]2CCNC2=O)cn1Cc1ccc(C#N)cc1 .
7.98

Please report the recorded pIC50 for Cc1c(-c2cccc(C(F)(F)F)c2)c(=O)c(C(=O)NCc2ccnnc2)cn1Cc1ccc(C#N)cc1 .
8.74

Please report the recorded pIC50 for Cc1c(-c2ccnc(C(F)(F)F)c2)c(=O)c(C(=O)NCCCS(C)(=O)=O)cn1C(C)c1ccc(C#N)cc1 (stereo not shown) .
8.49

Please report the recorded pIC50 for Cc1c(-c2ccnc(C(F)(F)F)c2)c(=O)c(C(=O)NCC2CCCO2)cn1C(C)c1ccc(C#N)cc1 (stereo not shown) [Example 9.32] .
7.71

Please report the recorded pIC50 for CS(=O)(=O)c1ccc(CNC(=O)c2cn(Cc3ccc(C#N)cc3)cc(-c3cccc(C(F)(F)F)c3)c2=O)nc1 .
8.28

Please report the recorded pIC50 for Cc1c(-c2cccc(C(F)(F)F)c2)c(=O)c(C(=O)NCC(C)O)cn1C(C)c1ccc(C#N)cc1 (stereo not shown) [Example 7.13] .
8.40

Please report the recorded pIC50 for COc1ccc(CNC(=O)c2cn(Cc3ccc(C#N)cc3)c(C)c(-c3cccc(C(F)(F)F)c3)c2=O)cn1 .
8.34

Please report the recorded pIC50 for CCNC(=O)c1cn(C(C)c2ccc(C#N)cn2)c(C)c(-c2ccnc(C(F)(F)F)c2)c1=O (stereo not shown) .
7.65

Please report the recorded pIC50 for Cc1c(-c2cccc(C(F)(F)F)c2)c(=O)c(C(=O)NCC[S+](C)[O-])cn1Cc1ccc(C#N)cc1 (stereo not shown) .
8.18

Please report the recorded pIC50 for Cc1c(-c2ccnc(C(F)(F)F)c2)c(=O)c(C(=O)NC2CCOCC2)cn1C(C)c1ccc(C#N)cc1 (stereo not shown) .
7.94

Please report the recorded pIC50 for Cc1c(-c2ccnc(C(F)(F)F)c2)c(=O)c(C(=O)NCC2CCCO2)cn1C(C)c1ccc(C#N)cc1 (stereo not shown) [Example 9.26] .
7.92

Please report the recorded pIC50 for Cc1noc(CNC(=O)c2cn(C(C)c3ccc(C#N)cc3)c(C)c(-c3cccc(C(F)F)c3)c2=O)n1 (stereo not shown) .
8.72

Please report the recorded pIC50 for Cc1noc(CNC(=O)c2cn(C(C)c3ccc(C#N)cc3)c(C)c(-c3cccc(C(F)(F)F)c3)c2=O)n1 (stereo not shown) .
8.60

Please report the recorded pIC50 for Cc1c(-c2ccnc(C(F)(F)F)c2)c(=O)c(C(=O)NCC2CCO2)cn1C(C)c1ccc(C#N)cc1 (stereo not shown) .
7.86

Please report the recorded pIC50 for CNC(=O)c1cn(Cc2ccc(C#N)cc2F)c(C)c(-c2cccc(C(F)(F)F)c2)c1=O .
7.69

Please report the recorded pIC50 for Cc1c(-c2cccc(C(F)(F)F)c2)c(=O)c(C(=O)NCCc2ccncc2)cn1Cc1ccc(C#N)cc1 .
8.12

Please report the recorded pIC50 for Cc1c(-c2cccc(C(F)(F)F)c2)c(=O)c(C(=O)NC(C)CO)cn1Cc1ccc(C#N)cc1 (stereo not shown) .
7.35
